assay: Neurotoxicity in Albino CF1 mouse by rotarod test; format: toxicity, organism-based; conditions: in vivo
Give measured TD50 for each item. Keep answers brief.

Entry CCCC(C(=O)O)C(C)C (racemic) — recorded TD50 = > 300 mg/kg

CCCC(CCC)C(=O)NC(N)=O has a reported TD50 of > 50 mg/kg

Lab note: measured TD50 of CC(C)C(C(=O)NC(N)=O)C(C)C was > 50 mg/kg
